Where these numbers come from: ChEMBL document CHEMBL3885881

Species on record: Rattus norvegicus
Test: DrugMatrix - Regimen: Daily Repeat
Type: toxicity, organism-based, Sprague-Dawley
Design: regimen Daily Repeat, gender Male, age 6-8 weeks
Details: in vivo, po, 0 mg/kg, 72 h, tissue Blood, route oral GAVAGE, dose level Control, time 3 day, […]
measured.attribute: LEUKOCYTE COUNT

Recorded LEUKOCYTE COUNT (compound O=C(O)CCCc1ccc(N(CCCl)CCCl)cc1 [CHLORAMBUCIL] ): 16.58 x10E3/uL

Recorded LEUKOCYTE COUNT (compound CCOC(=O)C1=C(COCCN)NC(C)=C(C(=O)OC)C1c1ccccc1Cl (stereo not given) [AMLODIPINE] ): 14.03 x10E3/uL

Recorded LEUKOCYTE COUNT (compound CC(C)(Oc1ccc(Cl)cc1)C(=O)O [CLOFIBRIC ACID] ): 16.6 x10E3/uL

Recorded LEUKOCYTE COUNT (compound C[C@H]1O[C@@H](O[C@H]2[C@@H](O)C[C@H](O[C@H]3[C@@H](O)C[C@H](O[C@H]4CC[C@@]5(C)[C@H](CC[C@@H]6[C@@H]5C[C@@H](O)[C@]5(C)[C@@H](C7=CC(=O)OC7)CC[C@]65O)C4)O[C@@H]3C)O[C@@H]2C)C[C@H](O)[C@@H]1O [DIGOXIN] ): 9.52 x10E3/uL

Read the next record carefully.
Recorded LEUKOCYTE COUNT (compound CC(C)C(=O)Nc1ccc([N+](=O)[O-])c(C(F)(F)F)c1 [FLUTAMIDE] ): 10.65 x10E3/uL

###

Organism: Rattus norvegicus
Assay: DrugMatrix - Regimen: Daily Repeat
Format: toxicity, organism-based, Sprague-Dawley
Set-up: regimen Daily Repeat, gender Male, age 6-8 weeks
Conditions: in vivo, po, 0 mg/kg, 120 h, tissue Blood, route oral GAVAGE, dose level Control, time 5 day, vehicle .5 % CMC
measured.attribute: NEUTROPHIL (%)
Return type: number; implicit unit %.

Recorded NEUTROPHIL (molecule OCCN(CCO)c1nc(N2CCCCC2)c2nc(N(CCO)CCO)nc(N3CCCCC3)c2n1 [DIPYRIDAMOLE] ): 15

Recorded NEUTROPHIL (molecule CCCCc1oc2ccccc2c1C(=O)c1cc(I)c(OCCN(CC)CC)c(I)c1 [AMIODARONE] ): 11

Recorded NEUTROPHIL (molecule N=C(N)NCCN1CCCCCCC1 [GUANETHIDINE] ): 15

Read the next record carefully.
Recorded NEUTROPHIL (molecule CC(C)(C)NC(=O)[C@@H]1C[C@@H]2CCCC[C@@H]2CN1C[C@@H](O)[C@H](Cc1ccccc1)NC(=O)[C@H](CC(N)=O)NC(=O)c1ccc2ccccc2n1 ): 8.33

###

Species on record: Rattus norvegicus
Experiment: DrugMatrix - Regimen: Daily Repeat
Format: toxicity, organism-based, Sprague-Dawley
Parameters: regimen Daily Repeat, gender Male, age 6-8 weeks
Settings: in vivo, po, 0 mg/kg, 120 h, tissue Plasma, route oral GAVAGE, dose level Control, time 5 day, vehicle 100 % WATER
measured.attribute: ASPARTATE AMINOTRANSFERASE (u/L)
Return type: number; implicit unit u/L.

Recorded ASPARTATE AMINOTRANSFERASE (compound NCCCCCC(=O)O ): 82.67

Recorded ASPARTATE AMINOTRANSFERASE (compound C=CCC1(C(C)CCC)C(=O)NC(=O)NC1=O (centres undefined) ): 80.83

Recorded ASPARTATE AMINOTRANSFERASE (compound CNNCc1ccc(C(=O)NC(C)C)cc1 ): 81

Recorded ASPARTATE AMINOTRANSFERASE (compound C[C@](N)(Cc1ccc(O)c(O)c1)C(=O)O ): 88
